# Assay System: PSMA-expressing C4-2 cells (Homo sapiens, UniProt Q04609)
# Construct: PSMA-expressing C4-2 cells (ATCC, Cat. No. CRL-3314) were cultured in RPMI-1640; host or cells: C4-2 cells
# Sequence (Q04609 whole entry): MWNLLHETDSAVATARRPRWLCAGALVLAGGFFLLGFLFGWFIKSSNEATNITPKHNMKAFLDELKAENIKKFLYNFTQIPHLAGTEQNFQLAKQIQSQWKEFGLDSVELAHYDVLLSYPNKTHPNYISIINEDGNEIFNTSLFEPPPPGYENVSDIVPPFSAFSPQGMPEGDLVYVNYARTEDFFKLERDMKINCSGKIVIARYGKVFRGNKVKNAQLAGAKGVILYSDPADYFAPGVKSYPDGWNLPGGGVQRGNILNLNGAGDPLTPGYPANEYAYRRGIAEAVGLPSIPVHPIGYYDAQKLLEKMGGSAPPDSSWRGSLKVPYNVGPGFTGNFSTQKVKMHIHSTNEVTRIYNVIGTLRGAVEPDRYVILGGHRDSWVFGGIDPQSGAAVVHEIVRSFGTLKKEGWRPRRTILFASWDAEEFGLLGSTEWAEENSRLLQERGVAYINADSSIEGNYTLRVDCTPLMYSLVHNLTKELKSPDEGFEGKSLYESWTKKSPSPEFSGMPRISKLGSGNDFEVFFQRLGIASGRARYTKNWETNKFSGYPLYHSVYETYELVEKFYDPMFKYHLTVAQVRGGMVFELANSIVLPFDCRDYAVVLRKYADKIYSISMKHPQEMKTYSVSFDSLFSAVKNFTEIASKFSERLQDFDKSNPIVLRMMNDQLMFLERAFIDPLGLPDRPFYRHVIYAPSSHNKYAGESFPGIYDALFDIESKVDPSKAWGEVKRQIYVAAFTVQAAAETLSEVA
# Assay Method Text: FACS binding assay (competition with 50 nM PSM-0183)
# Condition Details: pIC50 category of FACS binding, C4-2 cells; read-out: pIC50 [C4-2] CAT (converted)
# Method: In order to determine binding of compounds according to the present invention to PSMA-expressing cells, a FACS binding assay was established. PSMA-expressing C4-2 cells (ATCC, Cat. No. CRL-3314) were cultured in RPMI-1640 (Pan Biotech, Cat. No. P04-18050) including 10% fetal calf serum (Biochrom) and 100 U/ml penicillin and 100 μg/mL streptomycin (Sigma, Cat. No. P0781). […]
Bridge positions count the residues as written; N and C are the ends. Square brackets hold non-standard residues; d marks the D form. Peptide text beside a SMILES is read from it. Phe(3-Cl) = N[C@@H](Cc1cccc(Cl)c1)C(=O)O; Tle = CC(C)(C)[C@H](N)C(=O)O; Aib = CC(C)(N)C(=O)O
Quantity Measured: IC50

{"Compound": "CC(=O)N[C@H](C(=O)NC(C)(C)C(=O)N[C@@H](Cc1cccc(Cl)c1)C(=O)N[C@H]1CSSC[C@@H](C(=O)N[C@H](C(=O)N[C@H](C(=O)N[C@@H](CC(=O)O)C(N)=O)[C@@H](C)O)C(C)(C)C)NC(=O)[C@H](CC(N)=O)NC(=O)C(C)(C)NC(=O)[C@H](CCCNC(=N)N)NC(=O)[C@H](CCCCN)NC1=O)[C@@H](C)O [PSM-0383] (Ac-T[Aib][Phe(3-Cl)]CKR[Aib]NC[Tle]TD-NH2; disulfide 4-9)", "Recorded Value": "< 200 nM"}
{"Compound": "CC(=O)N[C@H](C(=O)NC(C)(C)C(=O)N[C@@H](Cc1ccccc1)C(=O)N[C@H]1CSSC[C@@H](C(=O)NC(C)(C)C(=O)N[C@H](C(N)=O)[C@@H](C)O)NC(=O)[C@H](CC(N)=O)NC(=O)C(C)(C)NC(=O)[C@H](CCCNC(=N)N)NC(=O)[C@H](CCCCN)NC1=O)[C@@H](C)O [PSM-0394] (Ac-T[Aib]FCKR[Aib]NC[Aib]T-NH2; disulfide 4-9)", "Recorded Value": "200 to 1260 nM"}
